# Test system: L1210 mouse leukemia cells transformed with the pHaMDR1/A retrovirus carrying a MDR1 cDNA (L1210VMDRC.06)
# MEASUREMENT_DESCRIPTION: MDR sensitization assay: reversal of MDR to doxorubicin in L1210VMDRC.06 cells (MTT or XTT viability, 3 days) (Table 1)
# EXPERIMENTAL_CONDITIONS: mouse, l1210vmdrc.06 cells, 72 h, 2.5 µM
Use TRUE when the recorded MDR Ratio (2.5 μM) is no lower than 10; use FALSE when it is lower.

>>> print(df.to_string())
                                   molecule  category
0  CN(C(=O)N1CCCC[C@H]1C(=O)OC(CCCc1cccnc1)CCCc1cccnc1)c1cccc(C(F)(F)F)c1 [Compound 6]      TRUE
1  O=C(OC(CCCc1cccnc1)CCCc1cccnc1)[C@@H]1CCCCN1C(=O)N1CCCCC1 [Compound 9]     FALSE

In plain terms: is recorded MDR Ratio (2.5 μM) at least 10 for CN(C(=O)N1CCCC[C@H]1C(=O)OC(CCCc1cccnc1)CCCc1cccnc1)c1ccc(C(C)(C)C)cc1 [Compound 7] ? TRUE

In plain terms: is recorded MDR Ratio (2.5 μM) at least 10 for CN(C(=O)N1CCCCC1C(=O)OC(CCc1ccccc1)CCc1ccccc1)c1ccc(S(=O)(=O)O)cc1 (centres unmarked) [Compound 14] ? FALSE

In plain terms: is recorded MDR Ratio (2.5 μM) at least 10 for CN(C(=O)N1CCCC[C@H]1C(=O)OC(COCc1ccccc1)COCc1ccccc1)c1ccc(N2CCOCC2)cc1 [Compound 16] ? TRUE

In plain terms: is recorded MDR Ratio (2.5 μM) at least 10 for CC(C)c1ccc(N(C)C(=O)N2CCCC[C@H]2C(=O)OC(CCCc2cccnc2)CCCc2cccnc2)cc1 [Compound 8] ? FALSE

In plain terms: is recorded MDR Ratio (2.5 μM) at least 10 for COc1cc(OC(=O)N2CCCC[C@H]2C(=O)OC(CCCc2cccnc2)CCCc2cccnc2)cc(OC)c1OC [Compound 11] ? FALSE

In plain terms: is recorded MDR Ratio (2.5 μM) at least 10 for COc1cc(N(C)C(=O)N2CCCC[C@H]2C(=O)OC(CCc2ccccc2)CCc2ccccc2)cc(OC)c1OC [Compound 13] ? TRUE

In plain terms: is recorded MDR Ratio (2.5 μM) at least 10 for O=C(OC(COCc1ccccc1)COCc1ccccc1)[C@@H]1CCCCN1C(=O)Oc1cccc2ncccc12 [Compound 18] ? TRUE

In plain terms: is recorded MDR Ratio (2.5 μM) at least 10 for CN(C(=O)N1CCCC[C@H]1C(=O)OC(COCc1ccccc1)COCc1ccccc1)c1ccc(N2CCCCC2)cc1 [Compound 17] ? TRUE

In plain terms: is recorded MDR Ratio (2.5 μM) at least 10 for COc1cc(N(C)C(=O)N2CCCC[C@H]2C(=O)OC(CCCc2cccnc2)CCCc2cccnc2)cc(OC)c1OC [Compound 5] ? FALSE
